test: NCI Yeast Anticancer Drug Screen. Data for the cln2 rad14 strain (AID 165);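 note: 0% = growth equal to vehicle treated cultures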; details: S. cerevisiae cln2 rad14 strain, at 50.0 µM, hits give high values
The panel holds about 79,000 compounds, 15% with a hit somewhere; the sample as a whole holds those more often.
Attribute Measured: growth inhibition (%)
Respond with the bare value in %.

Reference set, count: 5
Q: Returns the measured growth inhibition for the input molecule. Input: CCOC(=O)/C=C(\C)c1ccc(OC)cc1
Result: -7.5

Q: CCN(CC)CC1CCCCN1 (centres undefined) , same question.
Result: 29.6

Q: CC1=C(C)OCC1 , same question.
Result: 7.85

Q: COC(=O)Nn1cc(C(C(C)=O)C(C)=O)c(C(C)=O)c1C , same question.
Result: -35.6

Q: COc1ccc(CCN=C(c2ccccc2)c2ccccc2)cc1OC , same question.
Result: -27.4

***
Q: Returns the measured growth inhibition for the input molecule. Input: CCCOS(=O)(=O)O
Result: 7

Q: COc1ccc(N2C(=O)C3CC(c4ccc(Br)cc4)c4c([nH]c5ccccc45)C3C2=O)cc1 (centres undefined) , same question.
Result: -51.8

Q: O=NC(C[N+](=O)[O-])c1ccccc1 (centres undefined) , same question.
Result: -40.7

* * *

Reported growth inhibition values are given for each entry in this list.
test: NCI Yeast Anticancer Drug Screen. Data for the rad50 strain (AID 155);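 note: 0% = growth of vehicle-only cultures of the same strain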; settings: S. cerevisiae rad50 strain growth inhibition; at 50.0 µM; hits give high values
Compounds without any hit were thinned out: in the full panel of roughly 79,000, 15% have a hit.
Respond with the bare value in %.

Q: Returns the measured growth inhibition for the input molecule. Input: CCOC(=O)CC(=O)C(=O)NNC1=NCCCN1
Result: 7.25

Q: Cc1onc(-c2c(Cl)cccc2Cl)c1C(=O)Nc1ccc(Cl)c(Cl)c1Cl , same question.
Result: -12.4

Q: NC(=O)c1ncn(C2OC(CO)C(O)C2O)c1C(N)=O (stereo unspecified) , same question.
Result: -7.6

Q: O=C(CSSCC(=O)Nc1ccc(Br)cc1)Nc1ccc(Br)cc1 , same question.
Result: 28.8

Q: CNc1ccc(C(=O)NC(CCC(=O)O)C(=O)O)cc1I (stereo unspecified) , same question.
Result: 36.6

***
Q: Returns the measured growth inhibition for the input molecule. Input: COc1cccc(NC(=O)CSc2nnc(-c3ccc(NC(C)=O)cc3)o2)c1
Result: -29.2

* * *

test: NCI Yeast Anticancer Drug Screen. Data for the mlh1 rad18 strain (AID 175); conditions: S. cerevisiae mlh1 rad18 strain growth inhibition; at 50.0 µM; hits give high values
The panel holds about 79,000 compounds, 15% with a hit somewhere; the sample as a whole holds those more often.
Attribute Measured: growth inhibition (%)
Respond with the bare value in %.

Reference set, count: 5
Q: Returns the measured growth inhibition for the input compound. Input: CCC1(C(Cl)(Cl)Cl)C=CC(=O)C=C1
Result: -21.1

Q: Cc1cccc(C(=O)NN)c1 , same question.
Result: -5.95

Q: CCOC(=O)c1ccc(CSc2ccc(OC)cc2)cc1 , same question.
Result: 78.6

Q: O=c1cc(S(=O)(=O)Cc2ccccc2)[nH]c(=O)[nH]1 , same question.
Result: 31.2

Q: CC(c1ccccc1)c1ccc2ccccc2c1C(=O)O (stereo unspecified) , same question.
Result: 64.8

Now examine the next entry.
Q: Returns the measured growth inhibition for the input compound. Input: C[Si](C)(C)/C(=N/Nc1ccc([N+](=O)[O-])cc1[N+](=O)[O-])c1ccccc1
Result: -7.15

* * *

test: NCI Yeast Anticancer Drug Screen. Data for the cln2 rad14 strain (AID 165);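 note: 0% = growth equal to vehicle treated cultures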; details: S. cerevisiae cln2 rad14 strain, at 50.0 µM, hits give high values
Compounds without any hit were thinned out: in the full panel of roughly 79,000, 15% have a hit.
Reported growth inhibition values are given for each entry in this list.
Respond with the bare value in %.

Reference set, count: 5
Q: Returns the measured growth inhibition for the input compound. Input: O=C(O)c1cc(C2CC2)nc2ccccc12
Result: -0.95

Q: NC(=O)/C(=C\c1ccc(OCc2ccccc2)c(OCc2ccccc2)c1)NC(=O)c1ccccc1 , same question.
Result: 32.6

Q: CS(=O)(=O)C(CCC(=O)c1cccs1)C(=O)c1ccccc1 (configuration not stated) , same question.
Result: 1.85

Q: c1ccc(-c2ccccc2-c2ccccc2)cc1 , same question.
Result: -2.75

Q: Nc1ccnc(=O)[nH]1 , same question.
Result: -20.8

***
Q: Returns the measured growth inhibition for the input compound. Input: COC(=O)CCc1cccnc1/C=N/O
Result: 4.7

Q: CCCCCCCCCCCCCCCCNc1nc(=S)cc(C)[nH]1 , same question.
Result: -14.6

* * *

assay: NCI Yeast Anticancer Drug Screen. Data for the bub3 strain (AID 167); details: S. cerevisiae bub3 mutant strain, at 50.0 µM, hits give high values
This is part of a sample that, as a whole, favours compounds with a hit. Of some 79,000 tested, about 15% had one in any assay.
Attribute Measured: growth inhibition (%)
Respond with the bare value in %.

Q: Returns the measured growth inhibition for the input molecule. Input: Cc1ccc(S(=O)(=O)OCC2CCC(=O)N2)cc1 (stereo unspecified)
Result: -3.9

Q: CN(C)CCNC(=O)c1cccc(C(=O)Nc2ccccc2)c1[N+](=O)[O-] , same question.
Result: -9.95

***
Q: Returns the measured growth inhibition for the input molecule. Input: N#CCCC(=O)O
Result: 2.5

Q: COc1ccc2cc3[n+](cc2c1O)CCc1cc2c(cc1-3)OCO2 , same question.
Result: 22.2

Q: N#CC1(Cl)CC2CC1C1N=NN(c3ccccc3)C21 (stereo unspecified) , same question.
Result: 25.6

Q: CCCC1(c2ccccc2)OCC(CO)O1 (stereo unspecified) , same question.
Result: 4.1

Q: C/C(O)=C(/N=Nc1ccc(-c2nc3ccc(C)c(S(=O)(=O)O)c3s2)cc1)C(=O)Nc1ccccc1 , same question.
Result: 19.9

Q: CC1=CCCCC1 , same question.
Result: 8.65

Q: O=S(=O)(O)c1cc2nonc2c2ccccc12 , same question.
Result: 0.9

Q: CCCCCC/C=C/CCCCCCCc1cccc(OC)c1 (tested in a mixture with another compound) , same question.
Result: 1.25

Q: C(=C\C[P+](c1ccccc1)(c1ccccc1)c1ccccc1)/C[P+](c1ccccc1)(c1ccccc1)c1ccccc1 , same question.
Result: -2.75

* * *

assay: NCI Yeast Anticancer Drug Screen. Data for the rad50 strain (AID 155);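 note: 0% = growth of vehicle-only cultures of the same strain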; conditions: S. cerevisiae rad50 strain growth inhibition; at 50.0 µM; hits give high values
About 79,000 compounds went through this panel and 15% of them were active in at least one assay; those are over-represented in the sample as a whole. Activity calls are given as the source filed them. Rule as the data show it: active = growth inhibition above about 70%; inactive = the rest.
Attribute Measured: growth inhibition

Q: Returns the measured growth inhibition for the input molecule. Input: CN1C2CC(=O)CC1[C@@H]1OC(c3ccccc3)O[C@H]21 (stereo partly specified)
Result: 6.65% (inactive)

***
Q: Returns the measured growth inhibition for the input molecule. Input: Cn1ncc2c(=O)[nH]c(NN)nc21
Result: -8.35% (inactive)

Q: O=C(O)c1c(Br)c(Br)c(Br)c(Br)c1C(=O)Nc1ccc([N+](=O)[O-])cc1 , same question.
Result: -14.6% (inactive)

Q: CCCNc1nc(Cl)nc2c1cnn2C , same question.
Result: 7.6% (inactive)

Q: COc1ccc(C2SC(N)=Nc3c2c(C)nn3C(=O)c2ccc(Cl)cc2)cc1 (stereo unspecified) , same question.
Result: 3.7% (inactive)

Q: CC1=C(C)C2C3C(=O)NC(=O)C3C1C1C3C(=O)NC(=O)C3C21 (stereo unspecified) , same question.
Result: -21.8% (inactive)

* * *

test: NCI Yeast Anticancer Drug Screen. Data for the cln2 rad14 strain (AID 165);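 note: 0% = growth equal to vehicle treated cultures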; details: S. cerevisiae cln2 rad14 strain, at 50.0 µM
About 79,000 compounds went through this panel and 15% of them were active in at least one assay; those are over-represented in the sample as a whole. Activity calls are given as the source filed them. Rule as the data show it: active = growth inhibition above about 70%; inactive = the rest.
Form entry, call: pick from class 1 = active, class 0 = inactive

Here's what some known entries look like.
Q: Which outcome was assigned to COc1ccc(C2=CSC3=NC(C)(C)CC(C)=NN23)cc1 in this test?
Result: class 0

Q: COc1cccc(CN(CC(=O)O)S(=O)(=O)c2ccc(C)cc2)c1 , same question.
Result: class 0

Q: C1CCN(c2nn[nH]n2)CC1 , same question.
Result: class 0

Now for a further molecule.
Q: Which outcome was assigned to COc1ccccc1N=Nc1c(O)n(-c2ccccc2OC)c(=S)n(-c2ccc(I)cc2)c1=O in this test?
Result: class 1

* * *

assay: NCI Yeast Anticancer Drug Screen. Data for the mlh1 rad18 strain (AID 175); conditions: S. cerevisiae mlh1 rad18 strain growth inhibition; at 50.0 µM; hits give high values
Compounds without any hit were thinned out: in the full panel of roughly 79,000, 15% have a hit.
Attribute Measured: growth inhibition (%)
Respond with the bare value in %.

Q: Returns the measured growth inhibition for the input compound. Input: COc1ccc(/C=C2\SC(c3ccc(OC)cc3)N(NC(=O)Cc3ccccc3)C2=O)cc1 (stereo unspecified)
Result: 1.15

Q: CCCCCCC1(C=O)C(=O)NC(=O)N1C (stereo unspecified) , same question.
Result: -0.35

Q: CC(=O)OCC(=O)O[C@@H]1[C@H]2[C@@H](OC(=O)c3ccccc3)[C@@H](C)C[C@]2(O)[C@H](OC(C)=O)[C@@]2(C)C[C@]1(OC(C)=O)C[C@H]1C(=O)C(C)(C)[C@@H](OC(C)=O)[C@@H]12 , same question.
Result: -17.8

Q: C/C=C/C=C/C=N\O , same question.
Result: 6.8

Q: O=C1NC2(CCN(Cc3ccccc3)CC2)Nc2ccccc21 , same question.
Result: -6.75

***
Q: Returns the measured growth inhibition for the input compound. Input: CSc1ccc(/C=C/c2ccnc3ccccc23)cc1
Result: 7.95

Q: C/C(=N/NC(=O)C(N)=O)C(CC(C(=O)Nc1ccccc1C)/C(C)=N\NC(=O)C(N)=O)C(=O)Nc1ccccc1C (stereo unspecified) , same question.
Result: -12.6
